# TARGET DESC: recombinant PRL-1 (Homo sapiens, UniProt Q93096)
# Construct: 6xHis (N, cleaved yes); made in house; host or cells: E. coli One Shot BL21 Star
# Sequence (Q93096 whole entry): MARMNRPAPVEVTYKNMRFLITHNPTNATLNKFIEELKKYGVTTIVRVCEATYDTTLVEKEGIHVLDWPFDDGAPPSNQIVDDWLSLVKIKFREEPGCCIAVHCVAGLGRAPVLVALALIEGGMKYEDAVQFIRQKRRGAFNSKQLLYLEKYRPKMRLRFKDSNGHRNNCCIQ
# ASSAY PROCEDURE: In vitro phosphatase assay (DiFMUP hydrolysis), PRL-1; further: test concentration or dose not given here
# Assay type: biochemical
# RUN PARAMETERS: FDA-approved drug screen; compared to DMSO
Structures can show the parent of a compound that is named as a salt.
OBSERVED PROPERTY: % Phosphatase Activity (compared to DMSO) PRL-1 (%)
Only the number, expressed in %, is required.

These solved cases illustrate the format of a correct answer.
COC(=O)[C@H]1[C@H]2C[C@@H]3c4[nH]c5cc(OC)ccc5c4CCN3C[C@H]2C[C@@H](OC(=O)c2cc(OC)c(OC)c(OC)c2)[C@@H]1OC [Reserpine] = 110
S=C(NCc1ccc2c(c1)OCO2)N1CCN(c2ncnc3c2oc2ccccc23)CC1 [Amuvatinib (MP-470)] = 90
CC(C)[C@H]1CC[C@H](C(=O)N[C@H](Cc2ccccc2)C(=O)O)CC1 [Nateglinide] = 92
CC1=CC(=O)c2ccccc2C1=O [Menadione] = 62
C[C@H]1O[C@@H](n2cc(F)c(=O)[nH]c2=O)[C@H](O)[C@@H]1O [Doxifluridine] = 91
N#Cc1ccccc1-c1cc(-c2ccccn2)cn(-c2ccccc2)c1=O [Perampanel] = 488
CCc1ccc(CCOc2ccc(CC3SC(=O)NC3=O)cc2)nc1 (centres unmarked) [Pioglitazone HCl] = 81

We next turn to a different molecule, shown below.
Prompt: Given the molecule O=C(OCc1ccccc1)c1ccccc1 [Benzyl benzoate] , what is its reported % Phosphatase Activity (compared to DMSO) PRL-1?
Completion: 83

---

# TARGET DESC: recombinant PRL-2 (Homo sapiens)
# Construct: 6xHis (N, cleaved yes); made in house; host or cells: E. coli One Shot BL21 Star
# Sequence (Q12974 whole entry): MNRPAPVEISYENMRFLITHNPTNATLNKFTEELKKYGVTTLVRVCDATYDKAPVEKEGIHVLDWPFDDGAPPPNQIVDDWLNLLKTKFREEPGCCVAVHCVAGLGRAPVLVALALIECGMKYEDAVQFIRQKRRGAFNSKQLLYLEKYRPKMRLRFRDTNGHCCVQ
# ASSAY PROCEDURE: In vitro phosphatase assay (DiFMUP hydrolysis), PRL-2;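 further: PRL-2 activity read as DiFMUP hydrolysis after 20 min at room temperature with drug, enzyme first pre-reduced at 4 °C for 20 min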
# Format: biochemical
# RUN PARAMETERS: FDA-approved drug screen; compared to DMSO
Counter-ions that a name gives are not always drawn.
Parameter % Phosphatase Activity (compared to DMSO) PRL-2: see the listing below.
# number then unit; no other words

See these solved cases before continuing.
CC(=O)CCCCn1c(=O)c2c(ncn2C)n(C)c1=O = 92%
[NH2][Pt]1([NH2])[O]CC(=O)[O]1 = 97%
Nc1ccn([C@@H]2O[C@H](CO)[C@@H](O)[C@@H]2O)c(=O)n1 = 86%
CCC(=O)O[C@@H](O[P@](=O)(CCCCc1ccccc1)CC(=O)N1C[C@H](C2CCCCC2)C[C@H]1C(=O)[O-])C(C)C.[Na+] [Fosinopril Sodium] = 69%

Prompt: What measured % Phosphatase Activity (compared to DMSO) PRL-2 goes with CC(=O)NC[C@H]1CN(c2ccc(N3CCOCC3)c(F)c2)C(=O)O1 ?
Completion: 97%

Prompt: Cool, now FC(F)(F)C(Cl)Br (centres unmarked)
Completion: 95%

Prompt: One more molecule: CN(C)c1ccc(O)c2c1C[C@H]1C[C@H]3[C@H](N(C)C)C(O)=C(C(N)=O)C(=O)[C@@]3(O)C(O)=C1C2=O [Minocycline HCl]
Completion: 70%

Prompt: Lookup COc1cc2c(cc1OC)CC(=O)N(CCCN(C)C[C@H]1Cc3cc(OC)c(OC)cc31)CC2.Cl [Ivabradine HCl]
Completion: 113%
